Test: Cytotoxicity against human BEAS2B cells after 72 hrs by MTT assay
Assay type: cell-based, BEAS-2B
Settings: beas-2b, 72 h
Would you kindly list LC50 for each of these molecules?

Example results:
CSc1nc(NCc2ccccc2)c2cccnc2n1
97.51 µM
[SeH]c1nc(NCc2ccccc2)c2ccccc2n1
> 100 µM
CCCCC[Se]c1nc(N)c2ccccc2n1
> 100 µM
CSc1nc(NCCCCc2ccccc2)c2ccccc2n1
> 100 µM
CSc1ccc(CNc2nc(SC)nc3ncccc23)cc1
8.47 µM
CSc1ccc(CNc2nc([Se]C)nc3ccccc23)cc1
> 100 µM

Below: the item to evaluate.
Q: Look at this molecule and give its reported LC50. "CSc1nc(NCc2ccccc2)c2ccccc2n1"
Ans: > 100 µM
